Reported viability, T/C by item:
system: 855422-203-R-J1-PDC complex spheroid viability; assay: Anticancer human tumor 855422-203-R-J1-PDC patient-derived bladder carcinoma cell line growth inhibition [POLQ]; conditions: second compound 0.0316 µM; first compound 10 µM; active compounds read low;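 also: spheroids exposed to compounds for seven days before readout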
Field: numeric (%). Do not append units.

Some solved cases for reference:
For the compound O=C(Nc1ccc(O)c(NS(=O)(=O)c2ccc(F)cc2)c1)c1ccc(-c2ccccc2)cc1 + COC1C(OC(N)=O)C(O)C(Oc2ccc3c(O)c(NC(=O)c4ccc(O)c(CC=C(C)C)c4)c(=O)oc3c2C)OC1(C)C , what viability, T/C is on record?
38.7

Give its viability, T/C value. Item: CC1COCCN1c1cc(C2(S(C)(=N)=O)CC2)nc(-c2ccnc3[nH]ccc23)n1 (stereo not given) + COC1C(OC(N)=O)C(O)C(Oc2ccc3c(O)c(NC(=O)c4ccc(O)c(CC=C(C)C)c4)c(=O)oc3c2C)OC1(C)C
12

What value of viability, T/C has been reported for the following compound? CCc1cc2c(N3CCc4c(cc(Cn5ccnc5)cc4-c4cn(C)nc4C(F)(F)F)C3=O)ccnc2c(OC)n1 + Cc1cccc(N(C)C(=O)C2C(O)CCN2c2nc(C)cc(C(F)(F)F)c2C#N)c1
42.2

Sample COc1cc2cc(C(=O)CCC(=O)O)sc2cc1OC + COC1C(OC(N)=O)C(O)C(Oc2ccc3c(O)c(NC(=O)c4ccc(O)c(CC=C(C)C)c4)c(=O)oc3c2C)OC1(C)C — what was its viability, T/C?
101

Consider the compound CCCS(=O)(=O)Nc1ccc(F)c(C(=O)c2c[nH]c3ncc(-c4ccc(Cl)cc4)cc23)c1F + Nc1ccc(C#CCN(C(=O)Cc2ncc(C(F)(F)F)cc2C(F)(F)F)c2ccc(F)cc2)nn1 and give its measured viability, T/C.
4.15

Could you share which viability, T/C value was measured for C=CC(=O)N1CCN(c2nc(=O)n(-c3c(C)ccnc3C(C)C)c3nc(-c4c(O)cccc4F)c(F)cc23)C(C)C1 (stereo not given) + Nc1ccc(C#CCN(C(=O)Cc2ncc(C(F)(F)F)cc2C(F)(F)F)c2ccc(F)cc2)nn1 ?
214

What does the data say about its viability, T/C? Entry: CC(C)n1c(=O)n(C)c2cnc3cc(F)c(-c4ccc(OCCCN5CCCCC5)nc4)cc3c21 + Nc1ccc(C#CCN(C(=O)Cc2ncc(C(F)(F)F)cc2C(F)(F)F)c2ccc(F)cc2)nn1
107

Could you tell me which viability, T/C is on file for COc1cccc2c1C(=O)c1c(O)c3c(c(O)c1C2=O)CC(O)(C(=O)CO)CC3OC1CC(N)C(O)C(C)O1 (stereo not given) + COC1C(OC(N)=O)C(O)C(Oc2ccc3c(O)c(NC(=O)c4ccc(O)c(CC=C(C)C)c4)c(=O)oc3c2C)OC1(C)C ?
1.85

Next:
viability, T/C lookup needed for CC(C)n1c(=O)n(C)c2cnc3cc(F)c(-c4ccc(OCCCN5CCCCC5)nc4)cc3c21 + Cc1cccc(N(C)C(=O)C2C(O)CCN2c2nc(C)cc(C(F)(F)F)c2C#N)c1 , thanks.
57.6

I have this compound here, COc1ccc([C@@H](O)c2cc(-c3ncnc4cc(N5CCOCC5)ccc34)c(F)cc2Cl)nn1 + Cc1cccc(N(C)C(=O)C2C(O)CCN2c2nc(C)cc(C(F)(F)F)c2C#N)c1 , and I need its recorded viability, T/C.
32.7
